Measured values drawn from patent US9611303B2 for this set.

system: Proteinase K; test: Protease resistance of LATM2 (SDS-PAGE); details: 5 μM Proteinase K, 30° C., 15 min, presence or absence of biotin
MEASURED_ENDPOINT: decomposition by Proteinase K

MOLECULE	VALUE_MEASURED
TM2 T78A-D116A: TM2 with 78th threonine and 116th aspartic acid replaced with alanine; SEQ ID NO: 22 (protein, Synthetic TM2 T78A-D116A) MSDVQSSLTGTWYNELNSKMELTANKDGTLTGKYLSKVGDVYVPYPLSGRYNLQPPAGQGVALGWAVSWENSKIHSAATWSGQFFSESSPVILTQWLLSSSTARGDVWESTLVGNASFTKTAPTEQQIAHAQLHCRAPRLK	hardly decomposed
TM2 D116A: TM2 in which the 116th aspartic acid was replaced with alanine; SEQ ID NO: 12 (protein, Synthetic TM2 D116A) MSDVQSSLTGTWYNELNSKMELTANKDGTLTGKYLSKVGDVYVPYPLSGRYNLQPPAGQGVALGWAVSWENSKIHSATTWSGQFFSESSPVILTQWLLSSSTARGDVWESTLVGNASFTKTAPTEQQIAHAQLHCRAPRLK	hardly decomposed
TM2 T78A: TM2 in which the 78th threonine was replaced with alanine; SEQ ID NO: 10 (protein, Synthetic TM2 T78A) MSDVQSSLTGTWYNELNSKMELTANKDGTLTGKYLSKVGDVYVPYPLSGRYNLQPPAGQGVALGWAVSWENSKIHSAATWSGQFFSESSPVILTQWLLSSSTARGDVWESTLVGNDSFTKTAPTEQQIAHAQLHCRAPRLK	hardly decomposed
